Consider the following molecules and their measured pIC50 readings.
# tested-target: mixed isoforms of PKC
# assay-comment: Protein kinase inhibition assay, mixed isoforms of PKC (histone H1 substrate)
Value format note: pIC50 is -log10 of concentration (mol/L); just state the number.

CN(C)CCCn1cc(C2=C(c3c[nH]c4ccccc34)C(=O)NC2=O)c2ccccc21 [GF 109203X] = 7.52

Now let's try a different one.
[ask] Please give the measured pIC50 for this molecule: Cn1cc(C2=C(c3cn(CCCSC(=N)N)c4ccccc34)C(=O)NC2=O)c2ccccc21 [Ro 318220]
[reply] 8.30

* * *

Read-out record for p70 S6 kinase (Rattus norvegicus): IC50
Give your result in nM as a bare value.

CN(C)CCCn1cc(C2=C(c3c[nH]c4ccccc34)C(=O)NC2=O)c2ccccc21 [GF 109203X] = 100

Now let's try a different one.
[ask] Please give the measured IC50 for this molecule: Cn1cc(C2=C(c3cn(CCCSC(=N)N)c4ccccc34)C(=O)NC2=O)c2ccccc21 [Ro 318220]
[reply] 15

* * *

# tested-target: UniProt P31749
measurement-label: pIC50
Value format note: pIC50 is -log10 of concentration (mol/L); just state the number.

[ask] Please give the measured pIC50 for this compound: `Cn1cc(C2=C(c3cn(CCCSC(=N)N)c4ccccc34)C(=O)NC2=O)c2ccccc21`
[reply] 6.00

* * *

Consider the following substances and their measured Km readings.
# tested-target: RAC-PKα (Homo sapiens)
# Sequence (P31749 whole entry): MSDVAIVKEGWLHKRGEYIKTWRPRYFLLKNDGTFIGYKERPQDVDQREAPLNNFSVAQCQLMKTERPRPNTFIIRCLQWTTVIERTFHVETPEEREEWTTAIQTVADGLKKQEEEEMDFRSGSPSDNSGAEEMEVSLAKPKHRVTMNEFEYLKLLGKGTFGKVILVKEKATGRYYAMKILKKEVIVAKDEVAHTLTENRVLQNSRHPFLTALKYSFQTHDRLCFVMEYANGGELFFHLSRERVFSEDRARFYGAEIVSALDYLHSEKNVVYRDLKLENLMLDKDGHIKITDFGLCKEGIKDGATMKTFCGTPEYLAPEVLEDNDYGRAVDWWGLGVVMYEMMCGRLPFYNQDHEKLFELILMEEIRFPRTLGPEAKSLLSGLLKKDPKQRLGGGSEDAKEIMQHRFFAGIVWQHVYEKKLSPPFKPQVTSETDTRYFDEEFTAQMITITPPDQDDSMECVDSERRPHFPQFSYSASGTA
# measurement-conditions: phosphorylation by RAC-PKα
No end group written: not given here.

Example results:
RPRTSSF [RPRTSSF] = 5 µM
RPKTSSF [RPKTSSF] = > 500 µM
GRPRTSSFAEG = 4 µM
KPRTSSF [KPRTSSF] = > 500 µM
RPRTSTF [RPRTSTF] = 30 µM
RPRTSS [RPRTSS] = > 500 µM
RPRTSSE [RPRTSSE] = > 500 µM

Now let's try a different one.
[ask] Please give the measured Km for this substance: RPRNSSF [RPRNSSF]
[reply] > 500 µM

* * *

# tested-target: MAPKAP-K1β (Oryctolagus cuniculus)
# Construct: from tissue; host or cells: rabbit skeletal muscle
# Sequence (A0A5F9C4L9 1-740): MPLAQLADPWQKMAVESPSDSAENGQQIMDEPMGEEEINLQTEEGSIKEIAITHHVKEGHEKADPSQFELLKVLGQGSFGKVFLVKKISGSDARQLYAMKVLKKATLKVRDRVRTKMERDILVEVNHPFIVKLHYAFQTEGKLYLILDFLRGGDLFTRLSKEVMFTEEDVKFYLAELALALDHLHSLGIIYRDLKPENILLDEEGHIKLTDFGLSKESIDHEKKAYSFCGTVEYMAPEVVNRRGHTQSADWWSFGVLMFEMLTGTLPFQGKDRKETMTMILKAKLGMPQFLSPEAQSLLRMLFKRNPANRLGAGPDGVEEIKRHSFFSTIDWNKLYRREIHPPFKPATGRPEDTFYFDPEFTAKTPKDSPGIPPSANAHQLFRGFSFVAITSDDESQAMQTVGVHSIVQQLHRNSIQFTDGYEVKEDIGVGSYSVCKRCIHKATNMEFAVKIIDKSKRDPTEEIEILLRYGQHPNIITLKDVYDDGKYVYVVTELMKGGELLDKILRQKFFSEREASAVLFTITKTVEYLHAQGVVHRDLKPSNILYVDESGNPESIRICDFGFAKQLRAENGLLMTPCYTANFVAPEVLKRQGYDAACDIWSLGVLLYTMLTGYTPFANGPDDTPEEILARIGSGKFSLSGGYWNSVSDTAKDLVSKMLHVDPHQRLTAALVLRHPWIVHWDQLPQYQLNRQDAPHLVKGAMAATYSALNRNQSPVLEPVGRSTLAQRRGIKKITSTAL
# assay-comment: Protein kinase inhibition assay, MAPKAP-K1β (peptide […] substrate)
# Assay type: biochemical, rabbit
# measurement-conditions: read-out: IC50, MAPKAP-K1 B
measurement-label: pIC50
Value format note: pIC50 is -log10 of concentration (mol/L); just state the number.

[ask] Please give the measured pIC50 for this compound: CN(C)CCCn1cc(C2=C(c3c[nH]c4ccccc34)C(=O)NC2=O)c2ccccc21 [GF 109203X]
[reply] 7.30

src = patent US7897371B2
